Origin of measurements: ChEMBL document CHEMBL1156542

- experiment: Metabolic stability in Sprague-Dawley rat plasma at 70 uCi, iv after 15 mins
- Format: ADME, organism-based
- test_settings: read-out: Stability
For each entry below, report its remaining at 0.25 h value.
One number for each entry, in %.

>>> result_value("Cc1cccc(OC[C@H](O)CNC(C)C[18F])c1 (some centres not stated)")
25.5

Would you kindly look at the next entry?
Entry Cc1cccc(OC[C@@H](O)CNC(C)C[18F])c1 (some centres not stated) : reported remaining at 0.25 h = ? 28.6

----------
- experiment: Lipophilicity, log P at pH 7.4
- Assay type: physicochemical
- test_settings: buffer
value_kind: logD
One number for each entry.

A selection of reference data follows.
>>> result_value("CC(C)NCC(O)COc1cccc2[nH]c3ccccc3c12 (stereo not given)")
1.36
>>> result_value("Cc1cccc(OC[11C@@H](O)CNC(C)C)c1")
0.2
>>> result_value("CC(CF)NCC(O)COc1cccc2[nH]c3ccccc3c12 (stereo not given)")
2.2

Parameters: items (list). Returns: logD for each item.
1. Cc1cccc(OC[C@@H](O)CNC(C)C[18F])c1 (stereo not given in full)
2. Cc1cccc(OC[C@H](O)CNC(C)C[18F])c1 (stereo not given in full)

1.68
1.79

----------
For each entry below, report its remaining at 5 min value.
- experiment: Metabolic stability in Sprague-Dawley rat plasma at 70 uCi, iv after 5 mins
- Format: ADME, organism-based
- test_settings: read-out: Stability
One number for each entry, in %.

>>> result_value("Cc1cccc(OC[C@@H](O)CNC(C)C[18F])c1 (some centres not stated)")
59.2

Would you kindly look at the next entry?
Entry Cc1cccc(OC[C@H](O)CNC(C)C[18F])c1 (some centres not stated) : reported remaining at 5 min = ? 61.9
